Where these numbers come from: PubChem BioAssay (NCATS)

- method.summary: Identifying Small Molecule Inhibitors of Pancreatic Cancer Stem Cells (Panc1, Adherent) (AID 1259362)
- settings: viability; series mostly up to 46.1 µM
Records with an inconclusive call do not appear. Activity calls are given as the source filed them. Calls follow the shape of the dose curve; as a rule, active = well fitted cell-killing curve with a large enough effect; inconclusive = small, poorly fitted or top-dose-only effect, or effect the other way, or another doubt; inactive = no such curve, though single readings can be large or run the other way.
Could you please pick one outcome from this set? label 1 = active, label 0 = inactive

Input line: Can you look up the reported call for COC(=O)Nc1ccc(-c2nc(N3CCOCC3)c3cnn(C4CCN(C(=O)OC)CC4)c3n2)cc1 for me?
Output line: label 0

Input line: Can you look up the reported call for CC(O)=C(C#N)C(=O)Nc1ccc(C(F)(F)F)cc1 for me?
Output line: label 0

Input line: Can you look up the reported call for COc1ccc(CCN(C)CCCOc2ccc(S(=O)(=O)c3[nH]c4ccccc4c3C(C)C)cc2)cc1OC for me?
Output line: label 1

Input line: Can you look up the reported call for COc1ccc2c(c1)CC[C@H]1[C@@H]2CC[C@]2(C)[C@@H](NCCCCCCN3C(=O)C=CC3=O)CC[C@H]12 for me?
Output line: label 0

Input line: Can you look up the reported call for O=C(Nc1cccc(Cl)c1)Nc1ncc(CCNc2ncnc3ccsc23)s1 for me?
Output line: label 1

###

- method.summary: P-glycoprotein substrates identified in KB-3-1 adenocarcinoma cell line, qHTS therapeutic library screen (AID 1346986); also: nearly all actives have a fitted effect of over 60% in size
- settings: KB-3-1 parental cells viability, CellTiter-Glo, 72 h; series mostly up to 44.5 µM
Results filed as inconclusive are left out. Active and inactive are the calls of the source. The call rests on the fitted dose curve; in most records, active means well fitted inhibition curve with a large enough effect; inconclusive means small, poorly fitted or top-dose-only effect; inactive means no such curve, though single readings can be large or run the other way.
Could you please pick one outcome from this set? Y (active), N (inactive)

A selection of reference data follows.
C[C@@H](NC(=O)c1ncnc(N)c1Cl)c1ncc(C(=O)Nc2cc(C(F)(F)F)c(Cl)cn2)s1: N
O=C1NC(=O)C(c2cnc3ccccn23)=C1c1cn2c3c(cccc13)CN(C(=O)N1CCOCC1)CC2: Y
Cn1c(=O)c(Oc2ccc(F)cc2F)cc2cnc(NC3CCOCC3)nc21: N
O=C1C(c2c(O)[nH]c3ccccc23)=Nc2ccccc21: N

Input line: Can you look up the reported call for Nc1ncnc2c1ncn2[C@@H]1O[C@H](CO)[C@@H](O)[C@@H]1O for me?
Output line: N

###

- Test system: Tov-21-G
- method.summary: Primary qHTS to identify gynecologic anti-cancer compounds using libraries of approved drugs and bioactive compounds (AID 1345084); also: nearly all actives have a fitted effect of over 55% in size
- settings: Gynecologic cancer cell panel viability, ATPlite luminescence, 48 h; series mostly up to 57.5 µM
Results filed as inconclusive are left out. The source made the active and inactive calls. Calls come from the whole dose curve; as a rule, active = well fitted cell-killing curve with a large enough effect; inconclusive = small, poorly fitted or top-dose-only effect, or effect the other way; inactive = flat fitted curve, though single readings scatter.
recorded.endpoint: Potency

Field: example entries. Status: answers known.
CNC1CCC(N(Cc2cccc(-c3ccncc3)c2)C(=O)c2sc3ccccc3c2Cl)CC1 (stereo not drawn): inactive
O=C(CCCN1CCN(c2ccc(F)cc2)CC1)NC1c2ccccc2CSc2ccccc21 (stereo not drawn): inactive
Cc1nc2c([nH]1)CCN(C(=O)c1ccc(NC(=O)c3ccccc3-c3ccccc3)cc1)c1ccccc1-2: inactive
Cc1c(C(=O)Nc2ccc(N3C[C@@H](C)O[C@@H](C)C3)nc2)cccc1-c1ccc(OC(F)(F)F)cc1: inactive
COc1nc(C)cnc1NS(=O)(=O)c1cccnc1-c1ccc(-c2nnco2)cc1: inactive

Here O=S(=O)(O)c1ccc2cc(N=Nc3cc(S(=O)(=O)O)c4cccnc4c3O)ccc2c1 was tested on Tov-21-G, and its Potency came to inactive

Here OC[C@H]1O[C@@H](OCCc2ccc(O)cc2)[C@H](O)[C@@H](O)[C@H]1O was tested on Tov-21-G, and its Potency came to inactive
